Data origin: ChEMBL document CHEMBL1137444

target.or.test.system: Gamma-secretase
protocol.description: Inhibition of gamma secretase activity in human H4 cells transfected with APP695 mutant assessed as beta amyloid(1-40) production by whole cell assay
Assay type: cell-based
Threshold 7 nM. IC50 below it: 1. IC50 at it or above: -1.

| compound | category.label |
| --- | --- |
| CCC[C@H](NC(=O)[C@@H](O)C(C)(C)C)C(=O)Nc1ncc(C(C)C)s1 | -1 |
| CCC[C@H](NC(=O)Cc1cc(F)cc(F)c1)C(=O)Nc1nc(C)c(C(C)NCCC(C)(C)C)s1 (some centres undefined) | 1 |
| CCC[C@H](NC(=O)C(=O)C(C)(C)C)C(=O)Nc1ncc(C(C)C)s1 | -1 |
| CCCCNC(C)c1sc(NC(=O)[C@H](CCC)NC(=O)Cc2cc(F)cc(F)c2)nc1C (some centres undefined) | 1 |
| CCC[C@H](NC(=O)[C@@H](O)C(C)C)C(=O)Nc1ncc([C@H](C)CCCC(C)(C)OC)s1 | -1 |
| CCC[C@H](NC(=O)[C@@H](O)C(C)(C)C)C(=O)Nc1ncc([C@@H](C)CCCC(C)(C)OC)s1 | 1 |
| CCC[C@H](NC(=O)Cc1cc(F)cc(F)c1)C(=O)Nc1ncc(C(C)N2CCOCC2)s1 (some centres undefined) | 1 |
| CCC[C@H](NC(=O)[C@H](O)c1ccccc1)C(=O)Nc1ncc(C(O)(CC)CC)s1 | -1 |
| CCC[C@H](NC(=O)Cc1cc(F)cc(F)c1)C(=O)Nc1nc(C)c(C(C)N2CCN(C)CC2)s1 (some centres undefined) | -1 |

###

target.or.test.system: Gamma-secretase
protocol.description: Inhibition of gamma secretase C100Flag cleavaging activity in HeLa cell membranes assessed as M-amyloid beta-40 production by cell free assay
Set-up: species or system Homo sapiens
pIC50: −log10 of the molar value.
pIC50 by entry:
reported.metric: pIC50

| compound | measured.value |
| --- | --- |
| CCC[C@H](NC(=O)[C@@H](O)C(C)(C)C)C(=O)Nc1ncc([C@@H](C)CCCC(C)(C)OC)s1 | 8.00 |
| CCC[C@H](NC(=O)[C@@H](O)C(C)(C)C)C(=O)Nc1ncc(C(C)C)s1 | 7.35 |
| CCC[C@H](NC(=O)Cc1cc(F)cc(F)c1)C(=O)Nc1ncc(C(C)NCc2ccccc2)s1 (stereo partly specified) | 8.52 |
| CCC[C@H](NC(=O)Cc1cc(F)cc(F)c1)C(=O)Nc1ncc(C(C)NCC(C)C)s1 (stereo partly specified) | 8.38 |
| CCC[C@H](NC(=O)Cc1cc(F)cc(F)c1)C(=O)Nc1nc(C)c(C(C)NCC(C)C)s1 (stereo in doubt; 34a) | 8.51 |
| CCC[C@H](NC(=O)[C@@H](O)C(C)C)C(=O)Nc1ncc(C(C)CCCC(C)(C)OC)s1 (stereo partly specified) | 8.23 |
| CCC[C@H](NC(=O)Cc1cc(F)cc(F)c1)C(=O)Nc1nc(C)c(C(C)NCC)s1 (stereo partly specified) | 6.81 |
| CCC[C@H](NC(=O)Cc1cc(F)cc(F)c1)C(=O)Nc1ncc(CNCC)s1 | 7.20 |
| CCC[C@H](NC(=O)Cc1cc(F)cc(F)c1)C(=O)Nc1nc(C)c(C(C)N2CCN(C)CC2)s1 (stereo partly specified) | 7.55 |
| CCC[C@H](NC(=O)Cc1cc(F)cc(F)c1)C(=O)Nc1nc(C)c(C(C)NCC(C)C)s1 (stereo in doubt; 34) | 8.00 |
| CCCCNC(C)c1cnc(NC(=O)[C@H](CCC)NC(=O)Cc2cc(F)cc(F)c2)s1 (stereo partly specified) | 8.22 |
| CCC[C@H](NC(=O)[C@@H](O)C(C)(C)C)C(=O)Nc1ncc(C(C)CCCC(C)(C)OC)s1 (stereo partly specified) | 7.89 |
| CCC[C@H](NC(=O)Cc1cc(F)cc(F)c1)C(=O)Nc1nc(C)c(C(C)=O)s1 | 7.70 |
| CCCNC(C)c1cnc(NC(=O)[C@H](CCC)NC(=O)Cc2cc(F)cc(F)c2)s1 (stereo partly specified) | 7.80 |
| CCC[C@H](NC(=O)[C@@H](O)C(C)(C)C)C(=O)Nc1ncc([C@H](C)CCCC(C)(C)OC)s1 | 8.00 |
| CCC[C@H](NC(=O)Cc1cc(F)cc(F)c1)C(=O)Nc1nc(C)c(C(C)NCC(C)C)s1 (stereo in doubt; 34b) | 7.48 |
